Data provenance: patent US11186576B2

Target: CDK7/CycH/MNAT1 (Homo sapiens (Human), UniProt P50613)
Sequence (P50613 whole entry): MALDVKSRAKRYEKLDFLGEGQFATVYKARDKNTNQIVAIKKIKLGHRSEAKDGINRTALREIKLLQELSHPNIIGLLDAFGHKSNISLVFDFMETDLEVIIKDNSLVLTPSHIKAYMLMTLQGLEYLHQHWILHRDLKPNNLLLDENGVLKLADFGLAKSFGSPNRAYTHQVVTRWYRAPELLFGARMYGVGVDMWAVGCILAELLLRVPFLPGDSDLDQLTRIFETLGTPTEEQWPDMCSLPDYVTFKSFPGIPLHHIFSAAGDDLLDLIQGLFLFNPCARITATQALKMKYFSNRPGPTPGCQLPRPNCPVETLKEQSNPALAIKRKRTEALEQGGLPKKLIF
Sequence (P51946 whole entry partner): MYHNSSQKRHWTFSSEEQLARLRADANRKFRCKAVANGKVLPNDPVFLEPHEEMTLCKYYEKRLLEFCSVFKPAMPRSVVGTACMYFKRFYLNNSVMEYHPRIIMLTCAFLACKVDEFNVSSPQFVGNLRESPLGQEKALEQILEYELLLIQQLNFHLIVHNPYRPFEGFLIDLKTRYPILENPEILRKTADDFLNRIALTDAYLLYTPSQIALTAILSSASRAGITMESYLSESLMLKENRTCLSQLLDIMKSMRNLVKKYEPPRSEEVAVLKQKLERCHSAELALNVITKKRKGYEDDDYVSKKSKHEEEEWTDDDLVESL
Sequence (P51948 whole entry partner): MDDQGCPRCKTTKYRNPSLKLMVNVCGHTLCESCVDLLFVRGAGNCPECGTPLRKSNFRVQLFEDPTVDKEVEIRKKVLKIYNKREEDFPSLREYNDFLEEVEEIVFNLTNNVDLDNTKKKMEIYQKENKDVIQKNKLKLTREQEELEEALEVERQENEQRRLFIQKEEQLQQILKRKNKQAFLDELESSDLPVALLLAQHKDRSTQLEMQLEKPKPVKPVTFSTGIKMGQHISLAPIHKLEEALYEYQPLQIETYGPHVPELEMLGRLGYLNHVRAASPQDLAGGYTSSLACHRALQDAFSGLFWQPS
Test: Biochemical assay for CDK7 (TR-FRET kinase assay)
Conditions: 10 μM compound; 60 min pre-incubation; 1 mM ATP; read-out: % inhibition @ 10 μM
EXPERIMENTAL_READOUT: inhibition at 10 µM (%)
Give the value, in units of %, as a plain number.

Kindly state the measured inhibition at 10 µM obtained for C=CC(=O)N1CCOC(C(=O)Nc2cccc(CNc3nc(NC4CCOCC4)nc4c(C(C)C)cnn34)c2)C1 (stereo not shown) with CDK7/CycH/MNAT1 (Homo sapiens (Human), UniProt P50613).
98

Quick check: inhibition at 10 µM on CDK7/CycH/MNAT1 (Homo sapiens (Human), UniProt P50613), item `C=CC(=O)N(C)C1(C(=O)Nc2cccc(CNc3nc(NC4CCOCC4)nc4c(C(C)C)cnn34)c2)CC1` ?
97

Fill in the recorded inhibition at 10 µM for this compound, with CDK7/CycH/MNAT1 (Homo sapiens (Human), UniProt P50613) as test system: C=CC(=O)N1CCCC(C(=O)Nc2cc(CNc3nc(OC4CCN(C)CC4)nc4c(C(C)C)cnn34)ccc2F)C1 (stereo not shown)
95

Find inhibition at 10 µM (CDK7/CycH/MNAT1 (Homo sapiens (Human), UniProt P50613)) for the entry CC(C)c1cnn2c(NCc3cc(NC(=O)C4CCN(C(=O)/C=C/CN(C)C)C4)ccc3F)nc(NC3CCOCC3)nc12 (stereo not shown)
85

Observed inhibition at 10 µM on CDK7/CycH/MNAT1 (Homo sapiens (Human), UniProt P50613) for `CC(C)c1cnn2c(Nc3cccc(C(=O)NC4CCN(C(=O)/C=C/CN(C)C)CC4)c3)nc(OC3CCN(C)CC3)nc12` , please.
97

Item: C=CC(=O)N1CCC1C(=O)Nc1cccc(CNc2nc(NC3CCOCC3)nc3c(C(C)C)cnn23)c1F (stereo not shown) Test system: CDK7/CycH/MNAT1 (Homo sapiens (Human), UniProt P50613) Read-out: inhibition at 10 µM Value: ?
98

Param readout = inhibition at 10 µM; param system = CDK7/CycH/MNAT1 (Homo sapiens (Human), UniProt P50613); param query = `C=CC(=O)Nc1cn(C)nc1C(=O)Nc1cccc(CNc2nc(NC3CCOCC3)nc3c(C(C)C)cnn23)c1` ; response: value
99
